target: CK1ε (Homo sapiens (Human), UniProt P49674)
Sequence (P49674 whole entry): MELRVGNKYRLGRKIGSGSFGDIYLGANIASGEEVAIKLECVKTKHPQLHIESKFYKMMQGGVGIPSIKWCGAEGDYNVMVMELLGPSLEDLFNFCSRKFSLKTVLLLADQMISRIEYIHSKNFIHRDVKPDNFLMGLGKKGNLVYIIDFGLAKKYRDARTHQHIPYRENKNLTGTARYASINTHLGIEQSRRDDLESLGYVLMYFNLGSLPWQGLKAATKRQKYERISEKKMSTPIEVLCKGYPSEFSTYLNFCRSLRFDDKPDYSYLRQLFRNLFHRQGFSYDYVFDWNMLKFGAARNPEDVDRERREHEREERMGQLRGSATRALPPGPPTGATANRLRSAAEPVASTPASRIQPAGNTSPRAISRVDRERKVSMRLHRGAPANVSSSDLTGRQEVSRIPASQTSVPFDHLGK
measuredParameter: IC50 (nM)

Completed entries (count: 10):
smilesRepr	IC50, nM
Cc1nc(-c2ccc(F)cc2)c(-c2ccc3nc(NC(=O)c4cnccn4)cn3n2)n1C	19.4
O=C(Nc1cn2nc(-c3c(-c4ccc(F)cc4)ncn3C3CCNCC3)ccc2n1)c1cc(F)nc(F)c1	1.05
O=C(Nc1cn2nc(-c3c(-c4ccc(F)cc4)ncn3C3CCN(CCN4CCOCC4)CC3)ccc2n1)c1ccnc(F)c1	0.675
O=C(Nc1cn2nc(-c3c(-c4ccc(F)cc4)ncn3C3CCN(CC4CC4)CC3)ccc2n1)c1ccnc(F)c1	1.27
COCCN1CCC(n2cnc(-c3ccc(F)cc3)c2-c2ccc3nc(NC(=O)c4ccnc(F)c4)cn3n2)CC1	12.4
O=C(Nc1cn2nc(-c3c(-c4ccc(F)cc4)nc(C4CC4)n3C3CCN(CCN4CCOCC4)CC3)ccc2n1)c1ccnc(F)c1	7.83
O=C(Nc1cn2nc(-c3c(-c4ccc(F)cc4)ncn3-c3ccc(F)cc3)ccc2n1)c1cc(F)nc(F)c1	79.2
Cc1cc(-c2nc(C)n(CCF)c2-c2ccc3nc(NC(=O)c4ccnc(F)c4)cn3n2)ccc1F	0.76
O=C(Nc1cn2nc(-c3c(-c4ccc(F)cc4)nc4ccccn34)ccc2n1)c1cncnc1	6.13
Cc1nc(-c2ccc(F)cc2)c(-c2ccc3nc(NC(=O)c4ccc5ccncc5c4)cn3n2)n1C	1.89

A = O=C(Nc1cn2nc(-c3c(-c4ccc(F)cc4)nc(C4CC4)n3C3CCN(Cc4ccno4)CC3)ccc2n1)c1ccnc(F)c1
B = O=C(Nc1cn2nc(-c3c(-c4ccc(F)cc4)nc4ccccn34)ccc2n1)c1cnc2ccccc2n1
## Input Compare A and B and name the one whose reported IC50 is smaller. Mark your answer with the label of the selected entry.
## Output A

P = N#CC1(C(=O)N2CCn3c(nc(-c4ccc(F)cc4)c3-c3ccc4nc(NC(=O)c5ccnc(F)c5)cn4n3)C2)CC1
Q = O=C(Nc1cn2nc(-c3c(-c4ccc(F)cc4)ncn3C3CCN(C(=O)CC(F)(F)F)CC3)ccc2n1)c1cc(F)nc(F)c1
## Input Hi, I'm comparing P with Q and wondering which one has the bigger number for IC50. Any idea? Mark your answer with the label of the selected entry.
## Output P

---

molecular target: CK1δ (Homo sapiens (Human), UniProt P48730)
Sequence (P48730 whole entry): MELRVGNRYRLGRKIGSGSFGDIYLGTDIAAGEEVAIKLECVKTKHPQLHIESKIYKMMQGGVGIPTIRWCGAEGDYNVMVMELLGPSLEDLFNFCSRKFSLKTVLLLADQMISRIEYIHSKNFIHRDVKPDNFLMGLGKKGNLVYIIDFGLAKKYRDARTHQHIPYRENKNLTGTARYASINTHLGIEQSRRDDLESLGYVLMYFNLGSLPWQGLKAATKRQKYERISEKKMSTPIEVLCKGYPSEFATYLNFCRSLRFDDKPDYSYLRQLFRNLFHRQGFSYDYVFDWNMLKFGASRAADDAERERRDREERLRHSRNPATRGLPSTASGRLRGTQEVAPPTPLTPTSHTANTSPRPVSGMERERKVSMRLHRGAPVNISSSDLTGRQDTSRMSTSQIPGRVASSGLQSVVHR
pIC50: −log10 of the molar value.
measuredParameter: pIC50

Past entries and their recorded results:
compound	pIC50
O=C(Nc1cn2nc(-c3c(-c4ccc(F)cc4)ncn3-c3ccc(F)cc3)ccc2n1)c1cccc(-c2cccnc2)c1 [Compound 420]	8.44
O=C(Nc1cn2nc(-c3c(-c4ccc(F)cc4)ncn3C3CCN(Cc4ccon4)CC3)ccc2n1)c1ccnc(F)c1 [Compound 12]	9.07
Cn1nccc1CN1CCC(n2c(C3CC3)nc(-c3ccc(F)cc3)c2-c2ccc3nc(NC(=O)c4ccnc(F)c4)cn3n2)CC1 [Compound 129]	8.64
CC(C)C(=O)N1CCn2c(nc(-c3ccc(F)cc3)c2-c2ccc3nc(NC(=O)c4ccnc(F)c4)cn3n2)C1 [Compound 463]	9.30
O=C(Nc1cn2nc(-c3c(-c4ccc(F)cc4)nc4ccccn34)ccc2n1)c1ccnc2[nH]cnc12 [Compound 213]	8.79
O=C(Nc1cn2nc(-c3c(-c4ccccc4)ncn3CC(F)F)ccc2n1)c1ccnc(F)c1 [Compound 243]	9.19
Cc1nc(-c2ccc(F)cc2)c(-c2ccc3nc(NC(=O)c4ccc5ncccc5c4)cn3n2)n1C [Compound 336]	9.29
CN1CC(n2cnc(-c3ccc(F)cc3)c2-c2ccc3nc(NC(=O)c4ccnc(F)c4)cn3n2)C1 [Compound 149]	8.66
CN1CCC(C(=O)Nc2cn3nc(-c4c(-c5ccc(F)cc5)nc5ccccn45)ccc3n2)CC1 [Compound 216]	8.53
Cc1nnsc1C(=O)Nc1cn2nc(-c3c(-c4ccc(F)cc4)nc4ccccn34)ccc2n1 [Compound 178]	6.70

1 = Cc1nc(-c2ccc(F)cc2)c(-c2ccc3nc(NC(=O)c4ccc(-c5ccc(Cl)cc5)[nH]4)cn3n2)n1C [Compound 329]
2 = CC(C)(C)C(=O)Nc1cn2nc(-c3c(-c4ccc(F)cc4)ncn3CCO)ccc2n1 [Compound 274]
## Input Hi team, can someone confirm which has the larger pIC50: 1 or 2 ? Thanks. Let me know the label of the one you choose.
## Output 2
(2: 9.20, 1: 8.46)

---

Hi! I'm sharing some IC50 results obtained with CK1δ (Homo sapiens (Human)).
measuredParameter: IC50 (nM)

Below: 8 compounds and their reported IC50.
compound	measuredParameter	unitsSymbol	recordedResult
Cn1cc(Cn2cnc(-c3ccc(F)cc3)c2-c2ccc3nc(NC(=O)c4ccnc(F)c4)cn3n2)cn1 [Compound 259]	IC50	nM	0.314
Cc1cc(-c2nc(C)n(C)c2-c2ccc3nc(NC(=O)c4ccnc(F)c4)cn3n2)ccc1F [Compound 298]	IC50	nM	0.714
Cc1ccc(-c2nc(C)n(C)c2-c2ccc3nc(NC(=O)c4ccnc(F)c4)cn3n2)cc1 [Compound 300]	IC50	nM	1.8
O=C(Nc1cn2nc(-c3c(-c4ccc(F)cc4)ncn3C3CNC3)ccc2n1)c1ccncc1 [Compound 157]	IC50	nM	0.587
O=C(Nc1cn2nc(-c3c(-c4ccc(F)cc4)ncn3C3CCN(Cc4c[nH]cn4)CC3)ccc2n1)c1ccnc(F)c1 [Compound 22]	IC50	nM	0.101
O=C(Nc1cn2nc(-c3c(-c4ccc(F)cc4)ncn3CCN3CCCCC3=O)ccc2n1)c1ccnc(F)c1 [Compound 261]	IC50	nM	0.403
O=C(Nc1cn2nc(-c3c(-c4ccc(F)cc4)nc4ccccn34)ccc2n1)c1cncc(-c2cccs2)c1 [Compound 212]	IC50	nM	0.64
Cc1nc(-c2ccc(F)cc2)c(-c2ccc3nc(NC(=O)c4cnoc4)cn3n2)n1C [Compound 378]	IC50	nM	6.19

I = CC(=O)N1CCn2c(nc(-c3ccc(F)cc3)c2-c2ccc3nc(NC(=O)c4ccnc(F)c4)cn3n2)C1 [Compound 460]
II = Cc1nc(-c2ccc(F)cc2)c(-c2ccc3nc(NC(=O)c4cnc[nH]4)cn3n2)n1C [Compound 380]
## Input // returns I or II , whichever has the lower IC50 Please reply using the label of the selected record.
## Output I

A = O=C(Nc1cn2nc(-c3c(-c4ccc(F)cc4)ncn3C3CCN(CC4C[C@@H]5CC[C@H]4C5)CC3)ccc2n1)c1ccnc(F)c1 (some centres unmarked) [Compound 31]
B = CS(=O)(=O)CC(=O)N1CCC(n2cnc(-c3ccc(F)cc3)c2-c2ccc3nc(NC(=O)c4ccnc(F)c4)cn3n2)CC1 [Compound 58]
## Input Please indicate which entry, A or B , has the lower recorded IC50 value. Mark your selection by writing its label.
## Output B
(B: 0.233 nM, A: 0.742 nM)

I = O=C(Nc1cn2nc(-c3c(-c4ccc(F)cc4)ncn3C3CCN(C(=O)C4(C(F)(F)F)CCC4)CC3)ccc2n1)c1ccnc(F)c1 [Compound 49]
II = O=C(Nc1cn2nc(-c3c(-c4ccc(F)cc4)ncn3CCN3CCOCC3)ccc2n1)c1ccnc2ccccc12 [Compound 166]
## Input Of I and II , which shows the smaller IC50 value? Answer with the label corresponding to your selection.
## Output II

---

biological target: UniProt P49674
measuredParameter: IC50 (nM)

Some compounds with known IC50 results, for comparison:
compound	testSystem	measuredParameter	recordedResult
Cc1nc(-c2ccc(F)cc2)c(-c2ccc3nc(NC(=O)c4cccc(-c5cccnc5)c4)cn3n2)n1C [Compound 325]	UniProt P49674	IC50	1.44
Cc1nc(-c2ccc(F)cc2)c(-c2ccc3nc(NC(=O)c4ccncc4F)cn3n2)n1C [Compound 397]	UniProt P49674	IC50	6.65

A = Cc1nc(-c2ccc(F)cc2)c(-c2ccc3nc(NC(=O)c4ccccc4F)cn3n2)n1C [Compound 399]
B = O=C(Nc1cn2nc(-c3c(-c4ccc(F)cc4)nc4ccccn34)ccc2n1)c1ccnc(N2CCOCC2)c1 [Compound 203]
C = Cc1nc(-c2ccc(F)cc2)c(-c2ccc3nc(NC(=O)c4ccc(C#N)cc4)cn3n2)n1C [Compound 356]
D = CC(C)(O)C(=O)N1CCC(n2cnc(-c3ccc(F)cc3)c2-c2ccc3nc(NC(=O)c4ccnc(F)c4)cn3n2)CC1 [Compound 55]
E = CC(=O)N1CCCC1C(=O)Nc1cn2nc(-c3c(-c4ccc(F)cc4)nc(C)n3C)ccc2n1 (stereo not shown) [Compound 363]
## Input Returns the items ordered by IC50, from maximum to minimum. List labels; respect the requested ordering.
## Output E, A, B, C, D
(E: 26.2 nM, A: 5.29 nM, B: 3.68 nM, C: 1.91 nM, D: 1.05 nM)

---

biological target: CK1δ (Homo sapiens (Human)); assay: CK1δ kinase assay (Caliper LABCHIP electrophoretic separation of fluoresceinated peptide substrate and product); type: biochemical; conditions: 200 pM enzyme, 50 μM ATP, 22 hours at room temperature
measuredParameter: IC50 (nM)

smilesRepr	testSystem	measuredParameter	recordedResult
CC(C)(C)c1cc(C(=O)Nc2cn3nc(-c4c(-c5ccc(F)cc5)nc5ccccn45)ccc3n2)ncn1	CK1δ (Homo sapiens (Human))	IC50	9.84

1 = Cc1cc(Cn2cnc(-c3ccc(F)cc3)c2-c2ccc3nc(NC(=O)C(C)(C)C)cn3n2)no1
2 = NCC(=O)N1CCC(n2c(C3CC3)nc(-c3ccc(F)cc3)c2-c2ccc3nc(NC(=O)c4cccc(-c5cccnc5)c4)cn3n2)CC1
3 = O=C(Nc1cn2nc(-c3c(-c4ccc(F)cc4)nc(C4CC4)n3C3CCN(Cc4ccno4)CC3)ccc2n1)c1ccnc(F)c1
4 = Cc1nc(-c2cccnc2)sc1C(=O)Nc1cn2nc(-c3c(-c4ccc(F)cc4)nc4ccccn34)ccc2n1
5 = O=C(Nc1cn2nc(-c3c(-c4ccc(F)cc4)nc4ccccn34)ccc2n1)c1ccnc(C(F)(F)F)c1
## Input Please list the entries, largest IC50 first. Please respond with the labels ordered as the question requires.
## Output 4, 5, 3, 1, 2
(4: 60.7 nM, 5: 3.88 nM, 3: 0.907 nM, 1: 0.444 nM, 2: 0.203 nM)

P = CCn1cnc(-c2ccc(F)cc2)c1-c1ccc2nc(NC(=O)c3ccnc(F)c3)cn2n1
Q = Cc1nc(-c2ccc(F)cc2)c(-c2ccc3nc(NC(=O)c4sc(-c5ccncc5)nc4C(F)(F)F)cn3n2)n1C
R = Cc1nc(-c2ccc(F)cc2)c(-c2ccc3nc(NC(=O)c4ccnc(F)c4)cn3n2)n1C1CCN(C(=O)c2ccsn2)CC1
## Input Sort low-to-high on IC50, please. Present the labels in the sequence the task asks for.
## Output P, R, Q
